Values were extracted from the RNAGym collection of RNA variant scans (doi:10.7554/elife.90254).

B1: LINE1-mini (parent)
chain: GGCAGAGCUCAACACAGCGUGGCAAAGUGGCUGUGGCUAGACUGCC

Variants of: B1
Protocol details: self-cleavage, relative activity (ratio to wild type); higher = more cleavage; in vitro, sequencing; the parent is a self-cleaving ribozyme
Quick rule for you: self-cleavage at 0.1 or higher means yes, lower means no.

>  <Construct sequence>
GGCCGAGCUCAACACAGCGUGGCAAAGUGGCUGUGGCUCGACUGCC

>  <Discrete label>
no

$$$$
>  <Construct sequence>
GGCAGAGCUCAACACAGCGUGGCAAAGUGGGUGUGGCUAGACCGCC

>  <Discrete label>
no

$$$$
>  <Construct sequence>
GGCAGAGAUCAACACAGCGUGGCCAAGUGGCUGUGGCUAGACUGCC

>  <Discrete label>
yes

$$$$
>  <Construct sequence>
GGCAGAGCUCAACAAAGCGUGGCAAAGUGGCUGUGGCUAGACUGGC

>  <Discrete label>
no

$$$$
>  <Construct sequence>
GGCAGAGCUUAACACAGCGUGGCAAAGUGGCUGUGGCUAGACUGUC

>  <Discrete label>
yes

$$$$
>  <Construct sequence>
GGCAGAGCUCAACACCGCGUGGCAAAGUGGCCGUGGCUAGACUGCC

>  <Discrete label>
no

$$$$
>  <Construct sequence>
GGCAGAGCUCAACACACCGUGGCAAAGUGGCUGUGUCUAGACUGCC

>  <Discrete label>
no

$$$$
>  <Construct sequence>
GGCAGAGCUGAACACAGCGUGGCAAAGUGGCUGUGGCUAGACUGUC

>  <Discrete label>
yes

$$$$
>  <Construct sequence>
GGCAGAGCUCAACACAGCGGGGCAAAGUGGCUGUGUCUAGACUGCC

>  <Discrete label>
no

$$$$
>  <Construct sequence>
GCCAGAGCUCAACACAGCGUGGCAAAGUGGCUGUGGCGAGACUGCC

>  <Discrete label>
no

$$$$
>  <Construct sequence>
GGCAGGGCUCAACACAGCGUGGCAAAGUGGCUGUGGCAAGACUGCC

>  <Discrete label>
no

$$$$
>  <Construct sequence>
GGCAGAGCUUAACAAAGCGUGGCAAAGUGGCUGUGGCUAGACUGCC

>  <Discrete label>
no

$$$$
>  <Construct sequence>
GGCAGAGUUCAACACACCGUGGCAAAGUGGCUGUGGCUAGACUGCC

>  <Discrete label>
yes

$$$$
>  <Construct sequence>
GGCAGAGCUCAUCACAGCGUGGCAAAGUGGCUGUGGCUAGAGUGCC

>  <Discrete label>
no

$$$$
>  <Construct sequence>
CGCAGAGCUCAACACAGCCUGGCAAAGUGGCUGUGGCUAGACUGCC

>  <Discrete label>
no

$$$$
>  <Construct sequence>
GGCAGAGCUCAACACAGCGAGGCAAAGUGCCUGUGGCUAGACUGCC

>  <Discrete label>
yes

$$$$
>  <Construct sequence>
GGCAGAGCACAACACAGCGUGGCAAAGUGGCUCUGGCUAGACUGCC

>  <Discrete label>
no

$$$$
>  <Construct sequence>
GGACGAGCUCAACACAGCGUGGCAAAGUGGCUGUGGCUAGACUGCC

>  <Discrete label>
yes

$$$$
>  <Construct sequence>
GACAGAGCUCAACACAGCGUGGCAAAGUGGCUGUGGCUAGACUCCC

>  <Discrete label>
yes

$$$$
>  <Construct sequence>
GGCAGAGCUCAACACACCGUUGCAAAGUGGCUGUGGCUAGACUGCC

>  <Discrete label>
yes

$$$$
>  <Construct sequence>
GGCAGAGCUCAACACAGCGUAGCAAAGUGGCUGUGGCUAGACAGCC

>  <Discrete label>
yes

$$$$
>  <Construct sequence>
GGCAGAGCUCAACACAGGGUGGCAAAGUGGCUGUUGCUAGACUGCC

>  <Discrete label>
no

$$$$
>  <Construct sequence>
GGCAGAGCUCAACACUGCGUGUCAAAGUGGCUGUGGCUAGACUGCC

>  <Discrete label>
yes

$$$$
>  <Construct sequence>
UACAGAGCUCAACACAGCGUGGCAAAGUGGCUGUGGCUAGACUGCC

>  <Discrete label>
yes

$$$$
>  <Construct sequence>
GGCAGAGCUCAACACAGCGUGGCAAAGUGGGUGUGGCUAGACUACC

>  <Discrete label>
no

$$$$
>  <Construct sequence>
GGCAGAGCUCAACACAGCGUGGCAAAGUGGCUAUGGCUAGAAUGCC

>  <Discrete label>
no

$$$$
>  <Construct sequence>
GGCAGAGCUCAACACAGGGUGGCAAAGUGGCUGUGGCUGGACUGCC

>  <Discrete label>
no

$$$$
>  <Construct sequence>
GGCAGAGCGCAACACAGCGUGGAAAAGUGGCUGUGGCUAGACUGCC

>  <Discrete label>
yes

$$$$
>  <Construct sequence>
GGCAGAGCCCAACACAGCGUGGCAAAGUGGCUGUGGCUAGAGUGCC

>  <Discrete label>
no

$$$$
>  <Construct sequence>
GGCAGAGCUCAACACAGCGUGGCAAAGUGGCUCUGGCUAGACGGCC

>  <Discrete label>
no

$$$$
>  <Construct sequence>
GGCAGAGCCCAACACAGCGUGGCAAAGUGGCUGUGGCUAGACUGCG

>  <Discrete label>
no

$$$$
>  <Construct sequence>
GGCAGAGUUCAACACAGCGUGGCAAAGUGGCUGUGGCUAUACUGCC

>  <Discrete label>
yes

$$$$
>  <Construct sequence>
GGCAGAGCUCAACACAGCGUGGCAAAGUGGCAGUAGCUAGACUGCC

>  <Discrete label>
no

$$$$
>  <Construct sequence>
GGCAGAGCUCAACUCAGAGUGGCAAAGUGGCUGUGGCUAGACUGCC

>  <Discrete label>
yes

$$$$
>  <Construct sequence>
GGCAGAGCUCAAAACUGCGUGGCAAAGUGGCUGUGGCUAGACUGCC

>  <Discrete label>
no

$$$$
>  <Construct sequence>
GGCACAGCUCAACACAGCGUGGCAGAGUGGCUGUGGCUAGACUGCC

>  <Discrete label>
no

$$$$
>  <Construct sequence>
GGCAGAGCUCAUCACAGCGUGGCAAAGUGGCUUUGGCUAGACUGCC

>  <Discrete label>
no

$$$$
>  <Construct sequence>
GGCAGAGCUCAACACAGCGUGGCAAAGUGGCUGUGGCUAUACUGCU

>  <Discrete label>
yes

$$$$
>  <Construct sequence>
GGCAGAGCUCAACACAACGUGGCAAAGAGGCUGUGGCUAGACUGCC

>  <Discrete label>
yes

$$$$
>  <Construct sequence>
GGCAGAGCUCAACACAUCGUGGCAAAGUGGCUGUGGCUAGAGUGCC

>  <Discrete label>
no

$$$$
>  <Construct sequence>
GGCAGAGCUCAACAAAGCGUGGCAAAGUGGCUGUGGCUAAACUGCC

>  <Discrete label>
no

$$$$
>  <Construct sequence>
GGCAGAGCUCAACACAGCGUGGCAAACUGGCUAUGGCUAGACUGCC

>  <Discrete label>
yes

$$$$
>  <Construct sequence>
GGCAGAGCUCAACACAGCGUGGCAAAGUGGCUGUGACUGGACUGCC

>  <Discrete label>
yes

$$$$
>  <Construct sequence>
GGCAGAGCUCAAUACAGCGUGGCAAAGUGACUGUGGCUAGACUGCC

>  <Discrete label>
yes

$$$$
